- Test system: SARS-CoV-2
- protocol: microbe, parasite or virus in culture
- condition_parameters: Severe acute respiratory syndrome coronavirus 2, 860-J1 (Delta), Vero
- Description: Antiviral activity against SARS-CoV-2 860-J1 (Delta) infected in African green monkey Vero cells assessed as reduction in virus-induced cytopathic effect incubated for 6 to 7 days by microscopic analysis
Residues, ends and D or L forms follow the SMILES beside them. *: point of attachment. Acryloyl = C=CC(=O)*; NHBn = c1ccc(CN*)cc1
Quick reference: EC50 of the listed items.

compound	EC50
CC(C)C[C@H](NC(=O)CCl)C(=O)N[C@H](Cc1c[nH]c2ccccc12)C(=O)NCc1ccccc1	> 20 µM
C=CC(=O)N[C@@H](Cc1ccccc1)C(=O)N[C@@H](Cc1c[nH]c2ccccc12)C(=O)NCc1ccccc1 (Acryloyl-Phe-Trp-NHBn)	> 20 µM
C=CC(=O)N[C@@H](CC(C)C)C(=O)N[C@@H](Cc1c[nH]c2ccccc12)C(=O)NCc1ccccc1	> 100 µM

###

- Test system: SARS-CoV-2
- protocol: microbe, parasite or virus in culture
- condition_parameters: Severe acute respiratory syndrome coronavirus 2, Wuhan/WIV04/2020, Vero
- Description: Antiviral activity against SARS-CoV-2 Wuhan/WIV04/2020 infected in African green monkey Vero cells assessed as reduction in virus-induced cytopathic effect incubated for 6 to 7 days by microscopic analysis
Residues, ends and D or L forms follow the SMILES beside them. *: point of attachment. NHBn = c1ccc(CN*)cc1; ClAc = O=C(CCl)*
reported_property: EC50 (µM)

molecule	limit_qualifier	value_observed
C=CC(=O)N[C@@H](CC(C)C)C(=O)N[C@@H](Cc1c[nH]c2ccccc12)C(=O)NCc1ccccc1	>	100
COC(=O)[C@H](CC(C)C)NC(=O)[C@H](Cc1c[nH]c2ccccc12)NC(=O)CCl (ClAc-Trp-Leu-OMe)	>	4
O=C(CS)N[C@@H](Cc1ccccc1)C(=O)N[C@@H](Cc1c[nH]c2ccccc12)C(=O)NCc1ccccc1	>	100
CC(C)C[C@@H](NC(=O)CCl)C(=O)N[C@@H](Cc1c[nH]c2ccccc12)C(=O)NCc1ccccc1	=	0.08
CCC(CC)COC(=O)[C@H](C)N[P@](=O)(OC[C@H]1O[C@@](C#N)(c2ccc3c(N)ncnn23)[C@H](O)[C@@H]1O)Oc1ccccc1	=	3.74
O=C(CCl)N[C@@H](Cc1ccc(O)cc1)C(=O)N[C@@H](Cc1c[nH]c2ccccc12)C(=O)NCc1ccccc1 (ClAc-Tyr-Trp-NHBn)	=	2.37
